TEST_PROTOCOL: qHTS of pediatric cancer cell lines to identify multiple opportunities for drug repurposing: Primary screen for RD cells (AID 1347104); further: nearly all actives have a fitted effect of over 55% in size
CONDITION_SUMMARY: RD rhabdomyosarcoma viability, CellTiter-Glo luminescence, 48 h; series mostly up to 46 µM
Records with an inconclusive call do not appear. Active and inactive are the calls of the source. The call rests on the fitted dose curve; in most records, active means well fitted cell-killing curve with a large enough effect; inconclusive means small, poorly fitted or top-dose-only effect; inactive means flat fitted curve, though single readings scatter.
Choose the fitting class; nothing outside YES = active, NO = inactive is accepted.

Would you please look over these solved cases?
Cc1nc2cnc3ccc(C#Cc4cccnc4)cc3c2n1-c1ccc(C(C)(C)C#N)cc1 | YES
O=C(Cc1ccc(-c2ccc(OCCN3CCOCC3)cc2)cn1)NCc1ccccc1 | YES

QUERY: Lab log entry: C[C@@]12O[C@@H](C[C@]1(O)CO)n1c3ccccc3c3c4c(c5c6ccccc6n2c5c31)CNC4=O — outcome as called in the assay?
RESULT: YES

QUERY: What did this assay record as the result for Cn1c2cc(S(C)=O)sc2c2cnn(Cc3cccc(N)c3)c(=O)c21 (configuration not stated) ?
RESULT: NO

QUERY: Assay result, entry CC(C)(C)c1cnc(CSc2cnc(NC(=O)C3CCNCC3)s2)o1 — outcome?
RESULT: YES

QUERY: Please share the test call associated with CN1CC[C@@H](c2c(O)cc(O)c3c(=O)cc(-c4ccccc4Cl)oc23)[C@@H](O)C1 .
RESULT: YES

QUERY: Which outcome was entered for the molecule CC=CC1=C(C(=O)O)N2C(=O)[C@H](NC(=O)[C@H](N)c3ccc(O)cc3)[C@@H]2SC1 in this test?
RESULT: NO

QUERY: Please state the recorded outcome for this molecule: CC[C@@H]1C(=O)N(C)c2cnc(Nc3ccc(C(=O)NC4CCN(C)CC4)cc3OC)nc2N1C1CCCC1
RESULT: YES

QUERY: Entry C[C@H]1C[C@@H]2[C@@H]([C@@H](O)C[C@@]3(C)[C@H]2CC[C@]3(O)C(=O)CO)[C@@]2(C)C=CC(=O)C=C12 : call = ?
RESULT: NO

QUERY: Could you kindly confirm the outcome this assay logged for Cc1cc(N2CCOCC2)cc2[nH]c(-c3c(NC[C@@H](O)c4cccc(Cl)c4)cc[nH]c3=O)nc12 ?
RESULT: YES

QUERY: Answer briefly: the call reported for Cn1c(=O)n(-c2ccc(C(C)(C)C#N)cc2)c2c3cc(-c4cnc5ccccc5c4)ccc3ncc21 in this assay.
RESULT: YES

QUERY: For Cc1nc(Nc2n[nH]c3c2CN(C(=O)N[C@H](CN(C)C)c2ccccc2)C3(C)C)c2sccc2n1 , what call appears in the results of this test?
RESULT: YES

###

System: MCC-13
TEST_PROTOCOL: qHTS assay to identify novel small-molecules to repurpose for Merkel cell carcinoma treatment (AID 1296009); further: nearly all actives have a fitted effect of over 60% in size
CONDITION_SUMMARY: MCC and control cell lines, CellTiter-Glo viability, 72 h; series mostly up to 46 µM
Results filed as inconclusive are left out. Active and inactive are the calls of the source. The call rests on the fitted dose curve; in most records, active means well fitted inhibition curve with a large enough effect; inconclusive means small, poorly fitted or top-dose-only effect; inactive means flat fitted curve, though single readings scatter.
Answer with one of the outcomes given here: active, inactive

Clc1cccc(-c2nnnn2Cc2cccnc2)c1Cl | inactive
Cc1ccc(S(=O)(=O)Nc2cc(Cl)ccc2C(=O)Nc2nc(-c3ccccc3)cs2)cc1 | inactive
CC(C)CC(=O)Nc1n[nH]c2c1CN(C(=O)C1CCN(C)CC1)C2(C)C | inactive

QUERY: Called result for CC(C)(C)c1cc(C(C)(C)C)c(NC(=O)c2c[nH]c3ccccc3c2=O)cc1O
RESULT: inactive

QUERY: Recorded test outcome, item CC1(C)CCC(c2ccc(Cl)cc2)=C(CN2CCN(c3ccc(C(=O)NS(=O)(=O)c4ccc(N[C@H](CCN5CCOCC5)CSc5ccccc5)c(S(=O)(=O)C(F)(F)F)c4)cc3)CC2)C1
RESULT: inactive

QUERY: Can you look up the reported call for CS(=O)(=O)N1CCN(Cc2cc3nc(-c4cccc5[nH]ncc45)nc(N4CCOCC4)c3s2)CC1 for me?
RESULT: inactive

QUERY: What classification did CN(C)CC(C)(C)CNc1nn2c(-c3ccccc3)nnc2cc1C1CCC1 end up with in this test?
RESULT: inactive

QUERY: Which outcome was entered for the compound CCCCOc1c(C(=O)c2c(F)cc(C)cc2F)cnc2n[nH]cc12 in this test?
RESULT: inactive
